target_entity: FKBP12.6 (Homo sapiens)
assay_procedure: competitive fluorescence polarization assay, binding to FKBP12.6
study_conditions: Table 1, competitive Fluorescence Polarization Assay; read-out: Ki [nM] FKBP12.6
Reported Ki values for the following molecules.
Provide only the numeric value, understood in nM.

Below, 2 molecules whose answers are already recorded.
molecule="COc1ccc(CC[C@H]2OC(=O)[C@@H]3CCCCN3C(=O)[C@@H](C3CCCCC3)c3cc(OC)c(OC)c(c3)OCCCOc3cccc2c3)cc1OC [Compound 58]" result_value=87
molecule="COc1ccc(CC[C@H]2OC(=O)[C@@H]3CCCCN3C(=O)[C@@H](C3CCCCC3)c3cc(OC)c(OC)c(c3)OCCCC(=O)COc3cccc2c3)cc1OC [Compound 61b]" result_value=37

Now for a further molecule.
QUERY: Report Ki for COc1ccc(CC[C@H]2OC(=O)[C@@H]3CCCCN3C(=O)[C@@H](C3CCCCC3)c3cc(OC)c(OC)c(c3)OCCC(=O)CCOc3cccc2c3)cc1OC [Compound 61a] please.
RESULT: 22

###

target_entity: FKBP51FK1 (Homo sapiens, UniProt Q13451)
Sequence (Q13451 42-130 limits assumed): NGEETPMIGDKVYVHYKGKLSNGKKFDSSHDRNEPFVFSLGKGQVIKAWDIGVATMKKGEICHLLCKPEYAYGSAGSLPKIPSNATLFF
assay_procedure: biochemical
study_conditions: read-out: FKBP51FK1 Ki; Table 2; [a] standard error from three, [c] error from two independent measurements
quantity_name: pKi
Lab note: report pKi as minus log10 of the concentration in molar units, number only.

QUERY: Report pKi for COc1ccc(CC[C@@H](OC(=O)[C@@H]2CCCCN2C(=O)[C@H](c2cc(OC)c(OC)c(OC)c2)C2CCCCC2)c2cccc(OCC(=O)O)c2)cc1OC [SAFit1, reference compound] please.
RESULT: 8.40

###

target_entity: FKBP12.6 (Homo sapiens)
assay_procedure: competitive fluorescence polarization assay, binding to FKBP12.6
study_conditions: Table 1, competitive Fluorescence Polarization Assay; read-out: Ki [nM] FKBP12.6
// boundary case: Ki equal to 100 nM maps to criterion not met; strictly smaller maps to criterion met

For orientation, consider the following solved cases.
molecule="COc1ccc(CC[C@H]2OC(=O)[C@@H]3CCCCN3C(=O)[C@@H](C3CCCCC3)c3cc(OC)c(c(OC)c3)OCC(O)C(O)COc3cccc2c3)cc1OC (mixture of isomers)" assigned_label="criterion met"
molecule=COc1ccc(CC[C@H]2OC(=O)[C@@H]3CCCCN3C(=O)[C@@H](C3CCCCC3)c3cc(OC)c(OC)c(c3)OCCCOCCCCOc3cccc2c3)cc1OC assigned_label="criterion not met"
molecule="COc1ccc(CC[C@H]2OC(=O)[C@@H]3CCCCN3C(=O)[C@@H](C3CCCCC3)c3cc(OC)c(c(OC)c3)OCCOC/C=C\\COc3cccc2c3)cc1OC [33-(Z)]" assigned_label="criterion not met"
molecule=COc1ccc(CC[C@H]2OC(=O)[C@@H]3CCCCN3C(=O)[C@@H](C3CCCCC3)c3cc(OC)c(c(OC)c3)OCCCCOc3cccc2c3)cc1OC assigned_label="criterion not met"
molecule=COc1ccc(CC[C@H]2OC(=O)[C@@H]3CCCCN3C(=O)[C@@H](C3CCCCC3)c3cc(OC)c(OC)c(c3)OCCOCCCCOc3cccc2c3)cc1OC assigned_label="criterion met"

We next turn to a different molecule, shown below.
QUERY: Problem: For the molecule COc1ccc(CCC2OC(=O)C3CCCCN3C(=O)C(C3CCCCC3)c3cc(OC)c(OC)c(c3)OC/C=C\COc3cccc2c3)cc1OC (stereo not drawn) [35-(Z)] , is Ki under 100 nM?
RESULT: criterion not met

###

target_entity: FKBP51FK1 (Homo sapiens, UniProt Q13451)
assay_procedure: biochemical
study_conditions: affinity, same values as Table 2 FKBP51FK1
Reported Ki values for the following compounds.

Below, 4 compounds whose answers are already recorded.
structure_string=COc1ccc(CC[C@H]2OC(=O)[C@@H]3CCCCN3C(=O)[C@@H](C3CCCCC3)NC(=O)CNC(=O)COc3cccc2c3)cc1OC result_value="2.3 µM"
structure_string=COc1ccc(CC[C@H]2OC(=O)[C@@H]3CCCCN3C(=O)[C@@H](C3CCCCC3)NC(=O)C3(CCC3)NC(=O)COc3cccc2c3)cc1OC result_value="0.4 µM"
structure_string=COc1ccc(CC[C@H]2OC(=O)[C@@H]3CCCCN3C(=O)[C@@H](C3CCCCC3)NC(=O)C3(CCCC3)NC(=O)COc3cccc2c3)cc1OC result_value="1.3 µM"
structure_string=COc1ccc(CC[C@H]2OC(=O)[C@@H]3CCCCN3C(=O)[C@@H](C3CCCCC3)NC(=O)[C@@H]3CCC[C@H]3NC(=O)COc3cccc2c3)cc1OC result_value="1.8 µM"

QUERY: Report Ki for COc1ccc(CC[C@H]2OC(=O)[C@@H]3CCCCN3C(=O)[C@@H](C3CCCCC3)NC(=O)CN(C)C(=O)COc3cccc2c3)cc1OC please.
RESULT: 3.1 µM

QUERY: Repeat for the following compound: COc1ccc(CC[C@H]2OC(=O)[C@@H]3CCCCN3C(=O)[C@@H](C3CCCCC3)NC(=O)C(C)(C)NC(=O)COc3cccc2c3)cc1OC
RESULT: 0.29 µM

###

target_entity: FKBP12 (Homo sapiens, UniProt P62942)
Sequence (P62942 whole entry): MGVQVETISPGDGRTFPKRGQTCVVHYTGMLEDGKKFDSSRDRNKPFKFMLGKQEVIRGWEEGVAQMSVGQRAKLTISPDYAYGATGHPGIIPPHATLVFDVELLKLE
assay_procedure: competitive fluorescence polarization assay, binding to FKBP12
study_conditions: Table 1, competitive Fluorescence Polarization Assay; read-out: Ki [nM] FKBP12
// boundary case: Ki equal to 90 nM maps to Criterion not met; strictly smaller maps to Criterion met

For orientation, consider the following solved cases.
compound=COc1ccc(CC[C@H]2OC(=O)[C@@H]3CCCCN3C(=O)[C@@H](C3CCCCC3)c3cc(OC)c(OC)c(c3)OCCOCCCCOc3cccc2c3)cc1OC assigned_label="Criterion not met"
compound=COc1ccc(CC[C@H]2OC(=O)[C@@H]3CCCCN3C(=O)[C@@H](C3CCCCC3)c3cc(OC)c(c(OC)c3)OCCCCCOc3cccc2c3)cc1OC assigned_label="Criterion not met"
compound="COc1ccc(CC[C@H]2OC(=O)[C@@H]3CCCCN3C(=O)[C@@H](C3CCCCC3)c3cc(OC)c(OC)c(c3)OCCCC(=O)COc3cccc2c3)cc1OC [Compound 61b]" assigned_label="Criterion met"
compound="COc1ccc(CC[C@H]2OC(=O)[C@@H]3CCCCN3C(=O)[C@@H](C3CCCCC3)c3cc(OC)c(OC)c(c3)OCCOC/C=C/COc3cccc2c3)cc1OC [37-(E)]" assigned_label="Criterion not met"

We next turn to a different compound, shown below.
QUERY: Problem: For the compound COc1ccc(CC[C@H]2OC(=O)[C@@H]3CCCCN3C(=O)[C@@H](C3CCCCC3)c3cc(OC)c(OC)c(c3)OCCOCC(=O)CCOc3cccc2c3)cc1OC , is Ki under 90 nM?
RESULT: Criterion met

###

Reported Ki values for the following compounds.
target_entity: FKBP12.6 (Homo sapiens, UniProt P68106)
Sequence (P68106 whole entry): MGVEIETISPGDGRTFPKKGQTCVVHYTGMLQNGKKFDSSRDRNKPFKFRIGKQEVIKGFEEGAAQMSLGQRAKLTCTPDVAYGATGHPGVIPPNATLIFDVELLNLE
assay_procedure: competitive fluorescence polarization assay, binding to FKBP12.6
study_conditions: Table 1, competitive Fluorescence Polarization Assay; read-out: Ki [nM] FKBP12.6
Provide only the numeric value, understood in nM.

Below, 5 compounds whose answers are already recorded.
compound="COc1ccc(CC[C@H]2OC(=O)[C@@H]3CCCCN3C(=O)[C@@H](C3CCCCC3)c3cc(OC)c(OC)c(c3)OCC/C=C\\COc3cccc2c3)cc1OC [36-(Z)]" result_value=96
compound="COc1ccc(CC[C@H]2OC(=O)[C@@H]3CCCCN3C(=O)[C@@H](C3CCCCC3)c3cc(OC)c(OC)c(c3)OCCOC/C=C\\COc3cccc2c3)cc1OC [37-(Z)]" result_value=190
compound="COc1ccc(CC[C@H]2OC(=O)[C@@H]3CCCCN3C(=O)[C@@H](C3CCCCC3)c3cc(OC)c(c(OC)c3)OCC/C=C\\COc3cccc2c3)cc1OC [32-(Z)]" result_value=237
compound="COc1ccc(CCC2OC(=O)C3CCCCN3C(=O)C(C3CCCCC3)c3cc(OC)c(OC)c(c3)OCC(O)C(O)COc3cccc2c3)cc1OC (single isomer, unassigned) [Compound 64a]" result_value=10
compound=COc1ccc(CC[C@H]2OC(=O)[C@@H]3CCCCN3C(=O)[C@@H](C3CCCCC3)c3cc(OC)c(c(OC)c3)OCCCOc3cccc2c3)cc1OC result_value=211

Now for a further compound.
QUERY: Report Ki for COc1ccc(CC[C@H]2OC(=O)[C@@H]3CCCCN3C(=O)[C@@H](C3CCCCC3)c3cc(OC)c(OC)c(c3)OCCOc3cccc2c3)cc1OC please.
RESULT: 78
